The measurements presented in this section are drawn from patent US20240238365A1.

- Assay target: Aß25-35 (Homo sapiens, UniProt P05067)
- Assay method text: IC50 of YS peptide against Aß25-35 aggregation (ThT fluorescence)
- Type: biochemical
- Condition info: 37° C., ThT added 2 hours after start of incubation, blank corrected, n=3
Where no end group is shown, it is not given here.
Quantity kind: IC50 (nM)
Answers are plain numbers, in nM.

| Chain sequence | Units label | Quantitative result |
| --- | --- | --- |
| RETLVYLTHLD [YS-11, RETLVYLTHLD] | nM | 3600 |

Name the recorded IC50 of the item RETLVYLTHLDYDDTE [YS-16, RETLVYLTHLDYDDTE] in your answer.
600
